Source listed as paper PMC4336329.

Target: human ether-à-go-go-related gene (hERG) potassium channel (human);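 also: peak tail current of the secondary pulse compared with the same well before compound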
Sequence (Q12809 whole entry, looked up): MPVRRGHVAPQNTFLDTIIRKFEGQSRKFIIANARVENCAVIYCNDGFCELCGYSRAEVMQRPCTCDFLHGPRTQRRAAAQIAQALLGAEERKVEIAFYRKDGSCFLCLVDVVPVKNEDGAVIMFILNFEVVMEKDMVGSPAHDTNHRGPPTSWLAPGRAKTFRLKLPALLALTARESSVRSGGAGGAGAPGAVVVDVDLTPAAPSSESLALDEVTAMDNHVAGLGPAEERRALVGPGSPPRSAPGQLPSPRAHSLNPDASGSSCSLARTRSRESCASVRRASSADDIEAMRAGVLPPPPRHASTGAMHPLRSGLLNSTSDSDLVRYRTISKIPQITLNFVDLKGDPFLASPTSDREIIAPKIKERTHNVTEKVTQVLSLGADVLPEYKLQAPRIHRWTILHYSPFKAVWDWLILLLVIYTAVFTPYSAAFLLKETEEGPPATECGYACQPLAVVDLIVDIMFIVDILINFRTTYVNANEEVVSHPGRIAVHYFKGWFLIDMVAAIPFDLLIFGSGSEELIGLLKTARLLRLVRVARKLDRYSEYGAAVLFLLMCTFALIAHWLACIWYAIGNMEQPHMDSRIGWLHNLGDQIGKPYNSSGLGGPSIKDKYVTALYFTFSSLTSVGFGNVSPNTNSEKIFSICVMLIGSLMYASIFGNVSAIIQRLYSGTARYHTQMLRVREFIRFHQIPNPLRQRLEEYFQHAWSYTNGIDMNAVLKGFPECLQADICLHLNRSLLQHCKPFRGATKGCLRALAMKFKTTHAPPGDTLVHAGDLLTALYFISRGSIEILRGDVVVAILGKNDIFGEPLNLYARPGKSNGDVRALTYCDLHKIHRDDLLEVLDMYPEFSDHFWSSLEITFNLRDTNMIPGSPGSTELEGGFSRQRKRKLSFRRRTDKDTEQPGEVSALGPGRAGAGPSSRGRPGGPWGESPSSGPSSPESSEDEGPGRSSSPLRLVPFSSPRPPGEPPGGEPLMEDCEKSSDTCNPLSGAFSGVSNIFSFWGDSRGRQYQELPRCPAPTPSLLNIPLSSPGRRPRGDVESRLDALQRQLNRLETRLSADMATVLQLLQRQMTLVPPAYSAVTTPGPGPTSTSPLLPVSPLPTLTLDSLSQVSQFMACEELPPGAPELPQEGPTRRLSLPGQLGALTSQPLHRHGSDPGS
Assay: primary screen, population patch clamp on CHO cells stably expressing hERG; higher = less effect of the substance
The whole screen tested about 310,000 compounds, of which about 14,000 (4.5%) showed an effect of 50% or more. The effect is printed as a negative number. This is one part of a sample in which strong results are shown more often than they occur.
quantity kind: hERG current change (%, negative = inhibition) at 10uM (%)
Number in %, nothing else.

Give a short answer stating reported hERG current change (%, negative = inhibition) at 10uM for `O=C(CSc1ccc2nnc(CCNC(=O)c3ccccc3)n2n1)NCc1ccccc1` .
-8.24

Please list hERG current change (%, negative = inhibition) at 10uM recorded for the compound `CCCc1cc(Nc2cccc(OCC)c2)n2ncnc2n1`
-68

Determine from records and report hERG current change (%, negative = inhibition) at 10uM for `CC(C)CC(=O)O/N=C1\C(=O)N(Cc2ccc(Cl)cc2)c2ccc([N+](=O)[O-])cc21`
-36.1

Report hERG current change (%, negative = inhibition) at 10uM for COc1ccc(C(=O)OCC(=O)NC(C)CCc2ccccc2)cc1OC (centres unmarked)
0.524

Fill in hERG current change (%, negative = inhibition) at 10uM for record `O=C(NCc1ccccn1)c1cc(S(=O)(=O)N2CCCCC2)ccc1Cl`
3.78

Return value of hERG current change (%, negative = inhibition) at 10uM for input `O=[N+]([O-])c1ncn(C23CC4CC(CC(C4)C2)C3)n1` , no commentary.
-8.76

Fill in hERG current change (%, negative = inhibition) at 10uM for record NC(=O)c1cc2n(n1)C(C(F)(F)F)CC(c1ccco1)N2 (centres unmarked)
-7.54

State its hERG current change (%, negative = inhibition) at 10uM for this compound: `CCC(=O)N1CCCc2cc(S(=O)(=O)N3CCN(c4ccccc4F)CC3)ccc21`
-23.7

Output measured hERG current change (%, negative = inhibition) at 10uM for this item: `O=c1c2cc(NC(=S)N3CCCC3)ccc2nc2n1CCCCC2`
-28

Consider the compound `CC(C)NCCCCOc1cccc(Br)c1.O=C(O)C(=O)O` and give its recorded hERG current change (%, negative = inhibition) at 10uM.
-25.8

Report hERG current change (%, negative = inhibition) at 10uM for `COc1cc(NC(=O)Nc2cccc([N+](=O)[O-])c2)cc(OC)c1`
1.42

Output measured hERG current change (%, negative = inhibition) at 10uM for this item: `O=C(Nc1ccon1)C12CC3CC(C1)CC(n1cnc([N+](=O)[O-])n1)(C3)C2`
-50.5

Give hERG current change (%, negative = inhibition) at 10uM for the following compound: `Clc1ccc(Nc2ccc(NCc3ccccc3)nn2)cc1`
-37.8

For the compound CC1CCCCN1C(=S)Nc1ccc2nc3n(c(=O)c2c1)CCCCC3 (centres unmarked) , give its reported hERG current change (%, negative = inhibition) at 10uM.
-59

Please indicate hERG current change (%, negative = inhibition) at 10uM recorded for CC1CC(C)CN(C(=O)c2ccncc2)C1 (centres unmarked)
10.1

Read the entry `O=C(Nc1cc(Oc2ccc(Cl)cc2)cc([N+](=O)[O-])c1)c1ccco1` and write its reported hERG current change (%, negative = inhibition) at 10uM.
15

Find the measured hERG current change (%, negative = inhibition) at 10uM of `O=C(Nn1c(SCc2cccc([N+](=O)[O-])c2)nc2ccccc2c1=O)c1ccccc1` and report it.
-1.31

Complete the entry with hERG current change (%, negative = inhibition) at 10uM for `CCCc1cc(Nc2cccc(OC)c2)n2ncnc2n1`
-28.5

Return the recorded hERG current change (%, negative = inhibition) at 10uM value; entry: `CCOc1ccc(/C=N/Nc2cc(C)nc(N3CCOCC3)n2)cc1`
3.47

Return the recorded hERG current change (%, negative = inhibition) at 10uM value; entry: `CCOC(=O)Nc1ccc2nc3n(c(=O)c2c1)CCCCC3`
7.45

Identify hERG current change (%, negative = inhibition) at 10uM associated with the compound `CC(C)NCCCCOc1ccc(Br)cc1Cl.O=C(O)C(=O)O`
-64.6

Specify hERG current change (%, negative = inhibition) at 10uM for `COCCCNCCCCOc1ccc(Br)cc1C.O=C(O)C(=O)O` and stop.
-64.6

Fill in hERG current change (%, negative = inhibition) at 10uM for record CCOC(=O)c1sc2nc(C)nc(NC3CCC(O)CC3)c2c1C (centres unmarked)
2.9

Provide only the value of recorded hERG current change (%, negative = inhibition) at 10uM for `CCCn1c(SCC(=O)NC2CC2)nnc1-c1ccccn1`
-2.29

Let me know recorded hERG current change (%, negative = inhibition) at 10uM for CC1CCCN(C(=O)C(=O)Nc2ccc3nc4n(c(=O)c3c2)CCCCC4)C1 (centres unmarked) , thanks.
-17.8

Please give the documented hERG current change (%, negative = inhibition) at 10uM of `CCCc1cc(Nc2ccccc2)n2ncnc2n1`
2.69

Look up hERG current change (%, negative = inhibition) at 10uM of `O=C(Nc1cc(Oc2ccccc2)cc([N+](=O)[O-])c1)C12CC3CC(C1)CC(n1cnc(Cl)n1)(C3)C2` and report it.
13.9

Dear colleague, please send me the reported hERG current change (%, negative = inhibition) at 10uM for `Cc1cc(C(=O)Nc2ccc3[nH]ccc3c2)no1` when you can.
6.46

Read off the recorded hERG current change (%, negative = inhibition) at 10uM for `COc1ccc(/C=C/CN2CCC(n3nccc3NC(=O)C3CC3)CC2)cc1`
-72.7

Give hERG current change (%, negative = inhibition) at 10uM for the following compound: `O=c1c2cc(NC(=S)N3CCC(N4CCCCC4)CC3)ccc2nc2n1CCCCC2`
-3.94

Give a short answer stating reported hERG current change (%, negative = inhibition) at 10uM for `O=c1c2cc(NC(=S)N3CCCCC3)ccc2nc2n1CCCCC2` .
-55.7

Note hERG current change (%, negative = inhibition) at 10uM for the compound shown: `O=C1c2ccccc2S(=O)(=O)N1CCOc1ccc(F)cc1`
-27.6
